Target: Luciferin 4-monooxygenase (Photinus pyralis)
Experiment: CCTE_Simmons_QuantiLum_inhib_2: CCTE's Firefly Luciferase Inhibition Assay, Simmons Lab (AID 2283767)
Inconclusive results are not listed. The source made the active and inactive calls. How the source made its calls: active means hit-call score of the fitted dose curve at least 0.9, where 1 is the maximum; inconclusive means response in the unintended direction; inactive means score below 0.9.
Labels: true (1) for active, false (0) for inactive

INSERT INTO results (compound, qualitative_label) VALUES
  ('N#CS', 'false (0)'),
  ('CCOP(=S)(OCC)O/N=C(\C#N)c1ccccc1', 'true (1)'),
  ('O=c1[nH]c(=O)n(Cl)c(=O)n1Cl', 'false (0)'),
  ('CCCCCCCCCCCCOS(=O)(=O)O', 'false (0)'),
  ('O=C(CCl)Nc1ccccc1', 'false (0)'),
  ('CC(C)(C)c1ccccc1O', 'false (0)'),
  ('Nc1ncn[nH]1', 'false (0)'),
  ('O=C1c2ccccc2C(=O)C1C(=O)C(c1ccccc1)c1ccc(Cl)cc1 (stereo not drawn)', 'false (0)'),
  ('CN(C)C(=S)S', 'false (0)'),
  ('O=C(CBr)c1ccc(O)cc1', 'false (0)'),
  ('COc1ccc(N)cc1', 'false (0)'),
  ('CN(N=O)C(N)=O', 'false (0)'),
  ('CCOc1ccc(N)cc1', 'false (0)');

###

Read-out: Matrix Metallopeptidase 9 (MMP9), MMP9 (gene 4318)
Assay: BSK_KF3CT_MMP9: BioMAP Diversity Plus: KF3CT Assay for Matrix Metallopeptidase 9 (MMP9) Biomarker Activity (AID 2283074);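 on AC50: MMP9 protein level quantified by ELISA in the co-culture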
Conditions: primary human keratinocytes with fibroblasts; actives raise or lower the signal
Active and inactive are the calls of the source. The calls were made as follows: active = hit-call score of the fitted dose curve at least 0.9, where 1 is the maximum; inactive = score below 0.9.
reported property: AC50

INSERT INTO results (compound, reported_property, assay_value) VALUES
  ('Nc1ccc(N)cc1', 'AC50', 'inactive'),
  ('CC(C)(COCC1CO1)COCC1CO1 (centres undefined)', 'AC50', 'inactive'),
  ('O=[N+]([O-])c1cccc2ccccc12', 'AC50', 'inactive'),
  ('Cc1cc(C(C)(C)c2ccc(O)c(C)c2)ccc1O', 'AC50', '15.2 µM (active)'),
  ('CCCCN(CCCC)C(=S)[S-].CCCCN(CCCC)C(=S)[S-].[Ni+2]', 'AC50', 'inactive'),
  ('Oc1ccc(Cc2ccc(O)cc2)cc1', 'AC50', 'inactive'),
  ('N#Cc1cccnc1', 'AC50', 'inactive'),
  ('NC(=O)CCl', 'AC50', 'inactive'),
  ('CC(C)O.CC(C)O.OCCN(CCO)CCO.OCCN(CCO)CCO.[Ti]', 'AC50', 'inactive'),
  ('c1ccc2sc(SNC3CCCCC3)nc2c1', 'AC50', 'inactive'),
  ('Oc1c(Br)cc(Br)cc1Br', 'AC50', '28.2 µM (active)'),
  ('OCCN(CCO)CCO', 'AC50', 'inactive'),
  ('CC(C)(C)c1ccccc1O', 'AC50', 'inactive'),
  ('Cc1c([N+](=O)[O-])c(C)c([N+](=O)[O-])c(C(C)(C)C)c1[N+](=O)[O-]', 'AC50', '31.1 µM (active)');

###

Read-out: TIMP metallopeptidase inhibitor 2 (TIMP2), TIMP2 (gene 7077)
Assay: BSK_KF3CT_TIMP2: BioMAP Diversity Plus: KF3CT Assay for TIMP metallopeptidase inhibitor 2 (TIMP2) Biomarker Activity (AID 2283071)
Conditions: primary human keratinocytes with fibroblasts; actives raise or lower the signal
Calls of active or inactive are those of the source. How the source made its calls: active means hit-call score of the fitted dose curve at least 0.9, where 1 is the maximum; inactive means score below 0.9.
Outcome codes: active, inactive

INSERT INTO assay_data (compound, qualitative_label) VALUES
  ('Cc1ccccc1OP(=O)(Oc1ccccc1)Oc1ccccc1', 'active'),
  ('Oc1ccc(Cc2ccc(O)cc2)cc1', 'inactive'),
  ('OC(Cc1ccccc1Cl)(Cn1cncn1)C1(Cl)CC1 (centres undefined)', 'inactive'),
  ('O=C(N[C@H]1CN2CCC1CC2)c1ccc2c(c1)OCCO2', 'inactive'),
  ('c1ccc(-c2cccc(-c3ccccc3)c2)cc1', 'inactive'),
  ('O=C(Cc1ccccc1)OCCc1ccccc1', 'inactive'),
  ('Cc1cc(Cl)ccc1OC(C)C(=O)O (centres undefined)', 'inactive'),
  ('O=C(O)C1(c2ccc3c(c2)OC[C@H](Cc2ccc(-c4ccccc4)cc2)[C@H]3O)CCCC1', 'active'),
  ('COc1ccccc1N', 'inactive'),
  ('Cc1cc(C)cc(C)c1', 'inactive'),
  ('CCOC(=O)CCN(SN(C)C(=O)Oc1cccc2c1OC(C)(C)C2)C(C)C', 'inactive'),
  ('CC(C)(C)c1ccccc1O', 'inactive'),
  ('OCCCCO', 'inactive'),
  ('Cc1ccc2nc3sc(=O)sc3nc2c1', 'active');

###

Read-out: Cytochrome P450 (CYP1A1), CYP1A1 (gene 1543)
Test: LTEA_HepaRG_CYP1A1: Life Technologies and Expression Analysis (LTEA) Assay for Cytochrome P450 (CYP1A1) using HepaRG (AID 2283454)
Details: mRNA level, 48 h; actives raise or lower the signal
Activity calls are given as the source filed them. Rule for the calls: active = hit-call score of the fitted dose curve at least 0.9, where 1 is the maximum; inactive = score below 0.9.
Outcome codes: active, inactive

INSERT INTO results (smiles, qualitative_label) VALUES
  ('Oc1cc(Cl)c(Cl)cc1Cl', 'active'),
  ('CN(C)C(=S)S', 'active'),
  ('COc1ccccc1N', 'active'),
  ('CC(C)O.CC(C)O.OCCN(CCO)CCO.OCCN(CCO)CCO.[Ti]', 'inactive'),
  ('Clc1cccc(Cl)c1', 'active'),
  ('CC(C)(C)c1ccccc1O', 'active'),
  ('O=C(O)C1(c2ccc3c(c2)OC[C@H](Cc2ccc(-c4ccccc4)cc2)[C@H]3O)CCCC1', 'active'),
  ('CCCCCCCCCCCCc1cccc(S(=O)(=O)O)c1', 'active');

###

Read-out: Interleukin-1 alpha (IL1a), IL1A (gene 3552)
Assay: BSK_KF3CT_IL1a: BioMAP Diversity Plus: KF3CT Assay for Interleukin-1 alpha (IL1a) Biomarker Activity (AID 2283070)
Conditions: primary human keratinocytes with fibroblasts; actives raise or lower the signal
The source made the active and inactive calls. The calls were made as follows: active = hit-call score of the fitted dose curve at least 0.9, where 1 is the maximum; inactive = score below 0.9.
Outcome codes: YES (active), NO (inactive)

INSERT INTO measurements (molecule, qualitative_label) VALUES
  ('[Cl][Sn]([c]1ccccc1)([c]1ccccc1)[c]1ccccc1', 'YES'),
  ('O=C(Cc1ccccc1)OCCc1ccccc1', 'NO'),
  ('NC(=O)CCl', 'NO'),
  ('CCCCCCCCCCCCc1cccc(S(=O)(=O)O)c1', 'YES'),
  ('CCCCCCCCCCCCN(C)C', 'NO'),
  ('Oc1c(Cl)cc(Cl)cc1Cl', 'NO'),
  ('COc1ccccc1N', 'NO'),
  ('CC(C)(COCC1CO1)COCC1CO1 (stereo not given)', 'NO'),
  ('Clc1cccc(Cl)c1Cl', 'NO'),
  ('CC1(C)[C@H](C(=O)O[C@H](C#N)c2cccc(Oc3ccccc3)c2)[C@@H]1/C=C(\Cl)C(F)(F)F', 'NO');

###

Assay: BSK_3C_uPAR: BioMAP Diversity Plus: 3C Assay for Urokinase-type plasminogen activator receptor (uPAR) Biomarker Activity (AID 2282998)
Settings: BioMAP 3C HUVEC, uPAR biomarker ELISA; actives raise or lower the signal
The source made the active and inactive calls. Rule for the calls: active = hit-call score of the fitted dose curve at least 0.9, where 1 is the maximum; inactive = score below 0.9.
reported property: AC50

INSERT INTO measurements (compound, assay_value) VALUES
  ('Cc1cc(C(C)(C)c2ccc(O)c(C)c2)ccc1O', '10 µM (active)'),
  ('Nc1c(Oc2ccccc2)cc(O)c2c1C(=O)c1ccccc1C2=O', 'inactive'),
  ('c1ccc2sc(SNC3CCCCC3)nc2c1', 'inactive'),
  ('O=C(Cc1ccccc1)OCCc1ccccc1', 'inactive'),
  ('Cc1ccc2nc3sc(=O)sc3nc2c1', '3.43 µM (active)'),
  ('N#Cc1cccnc1', 'inactive'),
  ('OCCN(CCO)CCO', 'inactive'),
  ('O=C(N[C@H]1CN2CCC1CC2)c1ccc2c(c1)OCCO2', 'inactive'),
  ('CN(C)C(=S)S', 'inactive'),
  ('C=CC(Cl)CCl (stereo not drawn)', 'inactive'),
  ('Cc1ccc(OP(=O)(Oc2ccc(C)cc2C)Oc2ccc(C)cc2C)c(C)c1', 'inactive'),
  ('Cc1cc(C)cc(C)c1', 'inactive'),
  ('CCOC(=O)C(SP(=S)(OC)OC)c1ccccc1 (stereo not drawn)', '20 µM (active)'),
  ('O=C(O)C1(c2ccc3c(c2)OC[C@H](Cc2ccc(-c4ccccc4)cc2)[C@H]3O)CCCC1', '29.9 µM (active)'),
  ('O=C(CCl)NCO', 'inactive'),
  ('COCC(=O)N(c1c(C)cccc1C)[C@H](C)C(=O)OC', 'inactive'),
  ('OCCCCO', 'inactive'),
  ('CCOC(=O)CC(=O)CCl', '0.0141 µM (active)'),
  ('CCCCCCCCCCCCc1cccc(S(=O)(=O)O)c1', 'inactive'),
  ('O=S(=O)(c1ccc(Cl)cc1)c1cc(Cl)c(Cl)cc1Cl', '6.4 µM (active)'),
  ('CCCCOC(=O)COC(=O)c1ccccc1C(=O)OCCCC', 'inactive'),
  ('CCN(CC)C(=O)C(Cl)=C(C)OP(=O)(OC)OC', 'inactive'),
  ('Nc1ccc(N)cc1', 'inactive'),
  ('CCOC(=O)CCN(SN(C)C(=O)Oc1cccc2c1OC(C)(C)C2)C(C)C', '32.5 µM (active)'),
  ('[Cl][Sn]([c]1ccccc1)([c]1ccccc1)[c]1ccccc1', '0.141 µM (active)'),
  ('Cc1cccc(OP(=O)(Oc2cccc(C)c2)Oc2cccc(C)c2)c1', 'inactive'),
  ('CCC(C)(C#N)N=NC(C)(C#N)CC (stereo not drawn)', 'inactive'),
  ('CC(C)(C)c1cc([N+](=O)[O-])cc(C(C)(C)C)c1O', '0.467 µM (active)');
